TARGET_OR_TEST_SYSTEM: PI3Kδ (Homo sapiens, UniProt O00329)
Sequence (O00329 1-1044): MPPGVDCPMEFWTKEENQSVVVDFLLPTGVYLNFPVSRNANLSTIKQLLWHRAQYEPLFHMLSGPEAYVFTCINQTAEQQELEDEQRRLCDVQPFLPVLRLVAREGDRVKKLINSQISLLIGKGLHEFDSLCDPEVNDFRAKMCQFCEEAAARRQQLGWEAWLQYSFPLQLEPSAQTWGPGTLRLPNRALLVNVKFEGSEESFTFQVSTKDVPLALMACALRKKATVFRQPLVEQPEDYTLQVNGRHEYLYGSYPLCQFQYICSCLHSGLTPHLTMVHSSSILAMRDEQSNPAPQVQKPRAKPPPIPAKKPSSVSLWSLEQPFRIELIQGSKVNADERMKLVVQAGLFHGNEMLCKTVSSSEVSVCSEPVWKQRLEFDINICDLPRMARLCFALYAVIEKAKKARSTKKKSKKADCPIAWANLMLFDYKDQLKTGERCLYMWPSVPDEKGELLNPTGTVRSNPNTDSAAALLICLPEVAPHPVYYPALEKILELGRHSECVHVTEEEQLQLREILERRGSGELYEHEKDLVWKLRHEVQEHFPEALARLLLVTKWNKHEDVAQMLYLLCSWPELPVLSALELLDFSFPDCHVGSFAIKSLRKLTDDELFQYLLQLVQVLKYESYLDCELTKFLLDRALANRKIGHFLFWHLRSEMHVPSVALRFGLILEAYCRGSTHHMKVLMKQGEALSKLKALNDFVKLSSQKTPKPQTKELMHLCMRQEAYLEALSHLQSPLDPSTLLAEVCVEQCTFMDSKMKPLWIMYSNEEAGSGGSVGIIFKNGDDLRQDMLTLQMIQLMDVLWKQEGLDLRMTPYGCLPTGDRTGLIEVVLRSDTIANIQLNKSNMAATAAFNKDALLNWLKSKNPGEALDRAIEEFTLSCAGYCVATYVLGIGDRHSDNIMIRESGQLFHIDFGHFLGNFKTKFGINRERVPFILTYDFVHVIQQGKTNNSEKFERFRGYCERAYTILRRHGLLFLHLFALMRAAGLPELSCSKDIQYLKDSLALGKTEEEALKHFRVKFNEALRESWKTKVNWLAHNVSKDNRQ
RECORDED_ENDPOINT: IC50 (µM)
Give bare numbers, in µM.

For this compound ( COc1ncc(-c2ccc3c(c2)N(CCCN2CCOCC2)C(=O)CO3)cc1NS(=O)(=O)c1ccc(F)cc1F [ZDQ-0620] ), measured IC50 is 0.152
